Molecular target: T1, hPRLR.mmh (soluble monomeric human PRLR) (human)
T1 construct: called soluble monomeric PRLR protein
T1 chain: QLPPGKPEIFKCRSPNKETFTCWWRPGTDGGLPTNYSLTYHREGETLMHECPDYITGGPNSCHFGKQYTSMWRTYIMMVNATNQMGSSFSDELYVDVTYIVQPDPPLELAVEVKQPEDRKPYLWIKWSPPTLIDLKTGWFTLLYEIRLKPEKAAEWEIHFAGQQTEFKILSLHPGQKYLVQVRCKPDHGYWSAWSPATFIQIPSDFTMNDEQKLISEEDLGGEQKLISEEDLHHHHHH
Test: SPR Biacore, 25 C, mAb capture
Protocol: Measurements were conducted on a T200 Biacore instrument. Kinetic association (kₐ) and dissociation (kd) rate constants were determined by processing and fitting the data to a 1:1 binding model using Scrubber 2.0 curve fitting software.
I'd be grateful if you could share measured kon for these entries.
Write the value in M⁻¹ s⁻¹ as a bare number.

Entry H1H6953N (antibody, human IgG1, V domains shown, Tested with human IgG1 Fc (H1H); also called H1M6953N) VH: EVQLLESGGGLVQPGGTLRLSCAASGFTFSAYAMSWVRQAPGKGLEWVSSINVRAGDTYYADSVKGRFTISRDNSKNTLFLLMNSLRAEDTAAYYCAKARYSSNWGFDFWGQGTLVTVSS VL: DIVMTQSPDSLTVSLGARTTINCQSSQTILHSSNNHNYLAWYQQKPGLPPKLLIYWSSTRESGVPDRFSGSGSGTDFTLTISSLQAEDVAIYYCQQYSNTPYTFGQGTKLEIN has what kon?
792000

Entry H1H6790P (antibody, human IgG1, V domains shown, Human IgG1 Fc (H1H)) VH: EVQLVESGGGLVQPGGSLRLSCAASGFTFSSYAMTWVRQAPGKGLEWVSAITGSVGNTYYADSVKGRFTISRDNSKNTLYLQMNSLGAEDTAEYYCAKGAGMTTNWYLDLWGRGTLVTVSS VL: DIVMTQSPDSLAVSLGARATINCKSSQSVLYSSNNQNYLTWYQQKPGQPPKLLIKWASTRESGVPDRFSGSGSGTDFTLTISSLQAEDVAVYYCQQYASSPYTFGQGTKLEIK has what kon?
565000

Entry H1H6793P (antibody, human IgG1, V domains shown, Human IgG1 Fc (H1H)) VH: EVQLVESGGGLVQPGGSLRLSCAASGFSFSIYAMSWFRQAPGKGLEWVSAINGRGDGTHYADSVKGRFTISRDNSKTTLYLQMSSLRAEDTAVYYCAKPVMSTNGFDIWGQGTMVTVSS VL: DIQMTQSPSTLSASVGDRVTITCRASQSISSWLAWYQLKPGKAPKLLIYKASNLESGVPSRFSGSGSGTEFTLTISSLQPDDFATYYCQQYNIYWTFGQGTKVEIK has what kon?
235000
